Test system: 885512-296-R-J2-PDC complex spheroid viability
test: Anticancer human tumor 885512-296-R-J2-PDC patient-derived breast carcinoma cell line growth inhibition [GQUAD]
conditionSet: second compound 1 µM; first compound 1 µM; stronger effect = lower value
property: viability, T/C (%)
Record the value in %, omitting the unit from your answer.

Query block: # return recorded viability, T/C for entry COc1ncnc(C2CC2)c1-c1ncc2cnn(Cc3ccc(-c4nc(C(F)(F)F)cn4C(C)C)cc3)c2n1 + Cc1[nH]c2ccc(F)cc2c1-c1nc2c3cccnc3c3ncccc3c2[nH]1
Result block: 28.5

Query block: # return recorded viability, T/C for entry CC(C)(O)C1CCC(Nc2ccc3ncc(-c4cccc(C(F)(F)F)c4)n3n2)CC1 (configuration not stated) + Cc1[nH]c2ccc(F)cc2c1-c1nc2c3cccnc3c3ncccc3c2[nH]1
Result block: 69.9

Query block: # return recorded viability, T/C for entry CC(C)n1c(=O)n(C)c2cnc3cc(F)c(-c4ccc(OCCCN5CCCCC5)nc4)cc3c21 + Cc1[nH]c2ccc(F)cc2c1-c1nc2c3cccnc3c3ncccc3c2[nH]1
Result block: 66

Query block: # return recorded viability, T/C for entry Cc1cccc(N(C)C(=O)C2C(O)CCN2c2nc(C)cc(C(F)(F)F)c2C#N)c1 (configuration not stated) + CN(C)c1ccc(Nc2c3ccc(NC(=O)CCN4CCCC4)cc3nc3cc(NC(=O)CCN4CCCC4)ccc23)cc1
Result block: 93.2

Query block: # return recorded viability, T/C for entry COc1ncnc(C2CC2)c1-c1ncc2cnn(Cc3ccc(-c4nc(C(F)(F)F)cn4C(C)C)cc3)c2n1 + CN(C)c1ccc(Nc2c3ccc(NC(=O)CCN4CCCC4)cc3nc3cc(NC(=O)CCN4CCCC4)ccc23)cc1
Result block: 91

Query block: # return recorded viability, T/C for entry CC(C)(O)C1CCC(Nc2ccc3ncc(-c4cccc(C(F)(F)F)c4)n3n2)CC1 (configuration not stated) + Cc1cnc(CNC(=O)c2c(=O)c3ccc(N4CCCN(C)CC4)nc3n3c2sc2ccccc23)cn1
Result block: 29.9

Query block: # return recorded viability, T/C for entry CC(C)(O)C1CCC(Nc2ccc3ncc(-c4cccc(C(F)(F)F)c4)n3n2)CC1 (configuration not stated) + CN(C)c1ccc(Nc2c3ccc(NC(=O)CCN4CCCC4)cc3nc3cc(NC(=O)CCN4CCCC4)ccc23)cc1
Result block: 72.5

Query block: # return recorded viability, T/C for entry COc1cc(C2c3cc4c(cc3C(OC3OC5COC(C)OC5C(O)C3O)C3COC(=O)C23)OCO4)cc(OC)c1O (configuration not stated) + Cc1cnc(CNC(=O)c2c(=O)c3ccc(N4CCCN(C)CC4)nc3n3c2sc2ccccc23)cn1
Result block: 21.1

Query block: # return recorded viability, T/C for entry O=c1[nH]cc(F)c(=O)[nH]1 + Cc1cnc(CNC(=O)c2c(=O)c3ccc(N4CCCN(C)CC4)nc3n3c2sc2ccccc23)cn1
Result block: 28

Query block: # return recorded viability, T/C for entry CC1COCCN1c1cc(-c2ccnn2C)c2ccnc(-c3ccn[nH]3)c2n1 (configuration not stated) + Cc1[nH]c2ccc(F)cc2c1-c1nc2c3cccnc3c3ncccc3c2[nH]1
Result block: 2.67

Query block: # return recorded viability, T/C for entry CC1COCCN1c1cc(C2(O)CC3CCC(C2)O3)c2cnn(-c3ccn[nH]3)c2n1 (configuration not stated) + Cc1cnc(CNC(=O)c2c(=O)c3ccc(N4CCCN(C)CC4)nc3n3c2sc2ccccc23)cn1
Result block: 6.61

Query block: # return recorded viability, T/C for entry COc1cccc2c1C(=O)c1c(O)c3c(c(O)c1C2=O)CC(O)(C(=O)CO)CC3OC1CC(N)C(O)C(C)O1 (configuration not stated) + Cc1[nH]c2ccc(F)cc2c1-c1nc2c3cccnc3c3ncccc3c2[nH]1
Result block: 7.54

Query block: # return recorded viability, T/C for entry CC1COCCN1c1cc(-c2ccnn2C)c2ccnc(-c3ccn[nH]3)c2n1 (configuration not stated) + Cc1cnc(CNC(=O)c2c(=O)c3ccc(N4CCCN(C)CC4)nc3n3c2sc2ccccc23)cn1
Result block: 5.5

Query block: # return recorded viability, T/C for entry O=C(NO)c1cnc(N2CCN(S(=O)(=O)c3ccc4ccccc4c3)CC2)nc1 + Cc1[nH]c2ccc(F)cc2c1-c1nc2c3cccnc3c3ncccc3c2[nH]1
Result block: 5.02

Query block: # return recorded viability, T/C for entry Nc1ccn(C2OC(CO)C(O)C2(F)F)c(=O)n1 (configuration not stated) + Cc1[nH]c2ccc(F)cc2c1-c1nc2c3cccnc3c3ncccc3c2[nH]1
Result block: 2.76

Query block: # return recorded viability, T/C for entry COc1ccc([C@@H](O)c2cc(-c3ncnc4cc(N5CCOCC5)ccc34)c(F)cc2Cl)nn1 + Cc1cnc(CNC(=O)c2c(=O)c3ccc(N4CCCN(C)CC4)nc3n3c2sc2ccccc23)cn1
Result block: 24.3

Query block: # return recorded viability, T/C for entry C=CCn1c(=O)c2cnc(Nc3ccc(N4CCN(C)CC4)cc3)nc2n1-c1cccc(C(C)(C)O)n1 + CN(C)c1ccc(Nc2c3ccc(NC(=O)CCN4CCCC4)cc3nc3cc(NC(=O)CCN4CCCC4)ccc23)cc1
Result block: 8.23

Query block: # return recorded viability, T/C for entry Cc1cccc(N(C)C(=O)C2C(O)CCN2c2nc(C)cc(C(F)(F)F)c2C#N)c1 (configuration not stated) + Cc1cnc(CNC(=O)c2c(=O)c3ccc(N4CCCN(C)CC4)nc3n3c2sc2ccccc23)cn1
Result block: 25.6

Query block: # return recorded viability, T/C for entry COc1cc(C2c3cc4c(cc3C(OC3OC5COC(C)OC5C(O)C3O)C3COC(=O)C23)OCO4)cc(OC)c1O (configuration not stated) + Cc1[nH]c2ccc(F)cc2c1-c1nc2c3cccnc3c3ncccc3c2[nH]1
Result block: 37.9

Query block: # return recorded viability, T/C for entry O=c1[nH]cc(F)c(=O)[nH]1 + Cc1[nH]c2ccc(F)cc2c1-c1nc2c3cccnc3c3ncccc3c2[nH]1
Result block: 66.4

Query block: # return recorded viability, T/C for entry CCCS(=O)(=O)Nc1ccc(F)c(C(=O)c2c[nH]c3ncc(-c4ccc(Cl)cc4)cc23)c1F + Cc1[nH]c2ccc(F)cc2c1-c1nc2c3cccnc3c3ncccc3c2[nH]1
Result block: 2.04

Query block: # return recorded viability, T/C for entry CC1COCCN1c1cc(C2(O)CC3CCC(C2)O3)c2cnn(-c3ccn[nH]3)c2n1 (configuration not stated) + CN(C)c1ccc(Nc2c3ccc(NC(=O)CCN4CCCC4)cc3nc3cc(NC(=O)CCN4CCCC4)ccc23)cc1
Result block: 4.6

* * *

Tested on: 885512-296-R-J2-PDC complex spheroid viability
test: Anticancer human tumor 885512-296-R-J2-PDC cell line growth inhibition [GQUAD];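 further: spheroids exposed to the compounds for one week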
conditionSet: curve of first compound; second compound 0.0316 µM
property: pIC50
When answering, recall that pIC50 equals minus log10 of the concentration in mol/L, and write that number alone.

Query block: # return recorded pIC50 for entry COc1cc(C2c3cc4c(cc3C(OC3OC5COC(C)OC5C(O)C3O)C3COC(=O)C23)OCO4)cc(OC)c1O (stereo not given) + CN(C)c1ccc(Nc2c3ccc(NC(=O)CCN4CCCC4)cc3nc3cc(NC(=O)CCN4CCCC4)ccc23)cc1
Result block: 6.23

Query block: # return recorded pIC50 for entry O=C(NO)c1cnc(N2CCN(S(=O)(=O)c3ccc4ccccc4c3)CC2)nc1 + CN(C)c1ccc(Nc2c3ccc(NC(=O)CCN4CCCC4)cc3nc3cc(NC(=O)CCN4CCCC4)ccc23)cc1
Result block: 6.87

* * *

System: 885512-296-R-J2-PDC complex spheroid viability
test: Anticancer human tumor 885512-296-R-J2-PDC cell line growth inhibition [GQUAD];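 further: spheroids exposed to the compounds for one week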;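 on viability, T/C: percent of tumor spheroid viability relative to DMSO vehicle control wells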
conditionSet: second compound 0.316 µM; first compound 0.1 µM; stronger effect = lower value
Cut-off 20% on viability, T/C: below means yes (1), at or above means no (0).

Query block: Could you please tell me whether viability, T/C recorded for COc1ncnc(C2CC2)c1-c1ncc2cnn(Cc3ccc(-c4nc(C(F)(F)F)cn4C(C)C)cc3)c2n1 + CN(C)c1ccc(Nc2c3ccc(NC(=O)CCN4CCCC4)cc3nc3cc(NC(=O)CCN4CCCC4)ccc23)cc1 is less than 20%?
Result block: no (0)

Query block: Could you please tell me whether viability, T/C recorded for O=c1[nH]cc(F)c(=O)[nH]1 + Cc1[nH]c2ccc(F)cc2c1-c1nc2c3cccnc3c3ncccc3c2[nH]1 is less than 20%?
Result block: no (0)

Query block: Could you please tell me whether viability, T/C recorded for O=C(NO)c1cnc(N2CCN(S(=O)(=O)c3ccc4ccccc4c3)CC2)nc1 + CN(C)c1ccc(Nc2c3ccc(NC(=O)CCN4CCCC4)cc3nc3cc(NC(=O)CCN4CCCC4)ccc23)cc1 is less than 20%?
Result block: no (0)

Query block: Could you please tell me whether viability, T/C recorded for COc1ccc([C@@H](O)c2cc(-c3ncnc4cc(N5CCOCC5)ccc34)c(F)cc2Cl)nn1 + Cc1cnc(CNC(=O)c2c(=O)c3ccc(N4CCCN(C)CC4)nc3n3c2sc2ccccc23)cn1 is less than 20%?
Result block: no (0)

Query block: Could you please tell me whether viability, T/C recorded for CC(=O)O[C@H]1C(=O)[C@@]2(C)[C@H]([C@H](OC(=O)c3ccccc3)[C@]3(O)C[C@H](OC(=O)[C@H](O)[C@@H](NC(=O)c4ccccc4)c4ccccc4)C(C)=C1C3(C)C)[C@]1(OC(C)=O)CO[C@@H]1C[C@@H]2O + CN(C)c1ccc(Nc2c3ccc(NC(=O)CCN4CCCC4)cc3nc3cc(NC(=O)CCN4CCCC4)ccc23)cc1 is less than 20%?
Result block: yes (1)

Query block: Could you please tell me whether viability, T/C recorded for O=c1[nH]cc(F)c(=O)[nH]1 + CN(C)c1ccc(Nc2c3ccc(NC(=O)CCN4CCCC4)cc3nc3cc(NC(=O)CCN4CCCC4)ccc23)cc1 is less than 20%?
Result block: no (0)
